- System: heat-induced pain in mice
- assay.comment: effect on heat-induced pain in mice (CHEN and BECKMAN)
- Assay type: in vivo
- study.conditions: Mus musculus, po; male mice, oesophageal tube, 1% methylcellulose; read-out: ED^100 (dosage which doubled the reaction time)
Below, each entry is listed alongside its reported ED100.
measured.metric: ED100 (mg/kg)

In [3]: df
Out[3]:
                    query_smiles             assayed_system  measured_metric  reported_measurement
0        Cn1c2c(ccc1=O)C(=O)CCC2  heat-induced pain in mice            ED100                    71
1       Cc1cc2c(n(C)c1=O)CCCC2=O  heat-induced pain in mice            ED100                   109
2        CCN1C(=O)CCC2=C1CCCC2=O  heat-induced pain in mice            ED100                    70
3  CCCCn1c2c(c(C)cc1=O)C(=O)CCC2  heat-induced pain in mice            ED100                   101
4         CN1C(=O)CCC2=C1CCCC2=O  heat-induced pain in mice            ED100                    99

Where these numbers come from: patent US5068334A
